Subject Of Test: T1, human tumor necrosis factor-α (rHuTNF-alpha, Biosource) (human, UniProt P01375 77-233)
T1 construct: Bought recombinant protein coated on ELISA plates; The TNFα of the Biacore assay is not described further; also called TNFα; human TNFα
Assay Remarks: solid-phase ELISA, Fab lysate on coated rHuTNF-alpha
Parameter Measured: binding result

SEQ ID NO 131 (Fab, V domains shown, Fab, E. coli lysate) VH: EVQLTESGGGLVQPGGSLRLSCAASQFTFSNHYMNWVRQAPGKGLEWIGEIRSKSSNSATSYAESVKGRFIISRDGNGTSLTLEMNSLKTEDTAEYYCAQNYYGSTYDYWGQGTLVTVS VL: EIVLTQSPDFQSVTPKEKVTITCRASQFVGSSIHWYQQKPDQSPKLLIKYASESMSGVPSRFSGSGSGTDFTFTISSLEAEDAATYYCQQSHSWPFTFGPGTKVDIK
binds
SEQ ID NO 145 (Fab, V domains shown, Fab, E. coli lysate) VH: EVQLTESGGGLVQPGGSLRLSCRASQSTFSNHYMNWVRQAPGKGLEWIGEIRSKSSNGATSYAESVKGRFIISRDDNGNDLYLEMNSLKTEDTAEYYCAQNYYGSTYDYWGQGTLVTVS VL: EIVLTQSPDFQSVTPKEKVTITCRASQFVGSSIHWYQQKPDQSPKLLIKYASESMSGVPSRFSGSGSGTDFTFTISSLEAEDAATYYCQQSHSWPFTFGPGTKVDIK
binds
SEQ ID NO 76 (Fab, V domains shown, Fab, E. coli lysate) VH: EVQLTESGGGLVQPGGSLRLSCRASGFIFSNHYMNWVRQAPGKGLEWIGEIRSKSINGATHYAESVKGRFIISRDDNGTSLYLEMNSLKTEDTAEYYCARNYYGSTYDYWGQGTLVTVS VL: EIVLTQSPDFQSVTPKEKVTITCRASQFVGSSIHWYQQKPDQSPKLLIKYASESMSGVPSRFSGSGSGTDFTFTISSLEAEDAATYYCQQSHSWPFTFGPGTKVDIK
binds
